# Tested on: 653999-131-R-J2-PDC complex spheroids, growth inhibition;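 also: spheroids exposed to the agents for seven days before the readout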
# assay explanation: Anticancer human tumor 653999-131-R-J2-PDC patient-derived lung adenocarcinoma cell line growth inhibition [RAS]
# run parameters: curve of first compound; second compound 0.3 µM
endpoint: IC50 (nM)
# number only, unit nM dropped from output

CC(C)NCC(C(=O)N1CCN(c2ncnc3c2C(C)CC3O)CC1)c1ccc(Cl)cc1 (stereo not given) + CCn1c(-c2cccnc2C(C)OC)c2c3cc(ccc31)N1CCOC(CC(NC(=O)C(C(C)C)N(C)C(=O)C3(F)CCN(C(=O)C#CC(C)(C)N(C)C)CC3)C(=O)N3CCCC(N3)C(=O)OCC(C)(C)C2)C1
996

Could you now consider this next compound?
Please fill in: IC50 reported for C=CC(=O)Nc1cc(Nc2nccc(-c3cn(C)c4ccccc34)n2)c(OC)cc1N(C)CCN(C)C + CCn1c(-c2cccnc2C(C)OC)c2c3cc(ccc31)N1CCOC(CC(NC(=O)C(C(C)C)N(C)C(=O)C3(F)CCN(C(=O)C#CC(C)(C)N(C)C)CC3)C(=O)N3CCCC(N3)C(=O)OCC(C)(C)C2)C1 = 697
